Origin of measurements: patent US20200079793A1

// values below are pIC50; system is Adenosine A2A Receptor (Homo sapiens, UniProt P29274)
Sequence (P29274 whole entry): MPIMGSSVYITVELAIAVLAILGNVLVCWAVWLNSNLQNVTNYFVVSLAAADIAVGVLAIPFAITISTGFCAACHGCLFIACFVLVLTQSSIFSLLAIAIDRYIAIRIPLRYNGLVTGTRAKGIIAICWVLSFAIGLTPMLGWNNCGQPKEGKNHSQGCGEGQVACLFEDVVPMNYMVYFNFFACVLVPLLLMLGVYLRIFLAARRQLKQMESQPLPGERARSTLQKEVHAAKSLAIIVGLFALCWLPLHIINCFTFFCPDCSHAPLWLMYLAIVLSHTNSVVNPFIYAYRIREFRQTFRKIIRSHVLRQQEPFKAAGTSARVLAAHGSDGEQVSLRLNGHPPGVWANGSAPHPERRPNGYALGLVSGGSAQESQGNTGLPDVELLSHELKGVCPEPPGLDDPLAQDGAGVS
pIC50: −log10 of the molar value.

Item Cc1nc2nc(N[C@@H](C)c3cncc(F)c3)nc(C(=O)N3CC(NC(=O)C4(C(F)(F)F)CC4)C3)c2s1 [Example 70] with Adenosine A2A Receptor (Homo sapiens, UniProt P29274) - pIC50?
> 7.00

Item Cc1nc2nc(N[C@@H](C)c3cccnc3)nc(C(=O)N3CC(NC(=O)C4CCC4)C3)c2s1 [Example 75] with Adenosine A2A Receptor (Homo sapiens, UniProt P29274) - pIC50?
> 7.00

Item Cc1nc2nc(N[C@@H](C)c3cccnc3)nc(C(=O)N3CC(NC(=O)C45CC6CC(CC(C6)C4)C5)C3)c2s1 [Example 77] with Adenosine A2A Receptor (Homo sapiens, UniProt P29274) - pIC50?
> 7.00

Item Cc1nc2nc(N[C@@H](C)c3cccnc3)nc(C(=O)N3CC(NC(=O)NC4CCCC4)C3)c2s1 [Example 79] with Adenosine A2A Receptor (Homo sapiens, UniProt P29274) - pIC50?
> 7.00

Item Cc1nc2nc(N[C@@H](C)c3cncc(F)c3)nc(C(=O)NCCc3ccc(S(N)(=O)=O)cc3)c2s1 [Example 31] with Adenosine A2A Receptor (Homo sapiens, UniProt P29274) - pIC50?
< 6.00

Item Cc1nc2nc(N[C@@H](C)c3cncc(F)c3)nc(C(=O)NCCNC(=O)NC(C)(C)C)c2s1 [Example 36] with Adenosine A2A Receptor (Homo sapiens, UniProt P29274) - pIC50?
6.00 to 7.00

Item Cc1nc2nc(N[C@@H](C)c3cncc(F)c3)nc(C(=O)N3CC(NC(=O)c4ccccc4F)C3)c2s1 [Example 59] with Adenosine A2A Receptor (Homo sapiens, UniProt P29274) - pIC50?
> 7.00
